Where do the numbers come from? From paper PMC7289862.

experimental target: T1, Rad51-S2 (Schizosaccharomyces pombe, UniProt P36601 1-365, R324A;K334A)
T1 sequence: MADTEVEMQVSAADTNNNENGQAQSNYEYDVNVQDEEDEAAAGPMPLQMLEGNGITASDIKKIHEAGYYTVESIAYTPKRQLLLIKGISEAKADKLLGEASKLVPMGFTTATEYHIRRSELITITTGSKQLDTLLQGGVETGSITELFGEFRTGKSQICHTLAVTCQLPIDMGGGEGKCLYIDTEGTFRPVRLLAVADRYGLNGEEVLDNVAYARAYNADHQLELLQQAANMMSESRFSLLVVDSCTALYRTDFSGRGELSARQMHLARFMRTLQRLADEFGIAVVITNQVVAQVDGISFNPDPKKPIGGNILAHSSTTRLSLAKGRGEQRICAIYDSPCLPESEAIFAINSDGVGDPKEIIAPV
protocol summary: fluorescence anisotropy; 1 mM ATP, 3 mM MgCl2; Hill n 2.25; 30 mM HEPES-KOH pH 7.5, 100 mM KCl, 3 mM MgCl2, 1 mM DTT, 5% glycerol, 1 mM ATP, 25 C (EMSA: 2 mM ATP, 37 C, then 0.2% glutaraldehyde)
condition summary: protein: recombinant; label: 5' TAMRA
observation type: Kd (nM)
Give just the number in nM; leave the unit off.

For [TAMRA]dT72 (ssDNA) DNA: TTTTTTTTTTTTTTTTTTTTTTTTTTTTTTTTTTTTTTTTTTTTTTTTTTTTTTTTTTTTTTTTTTTTTTTT the binder record lists Kd as 895
